Population Pyknosed Nuclei (%) values by entry
- System: Fibroblast
- protocolNotes: Multiplex assay against human fibroblast
- Type: toxicity, cell-based
- cond: 12 h, 10 µM, compound concentration 10 uM, replicate 2
Kindly provide the numeric value in % only, without the unit symbol.

Check out these entries, answers already filled in.
[
  {
    "compound": "Cl.Clc1ccc2nsnc2c1NC1=NCCN1 [TIZANIDINE HYDROCHLORIDE]",
    "Population Pyknosed Nuclei (%)": 29
  },
  {
    "compound": "c1cc(OCCCN2CCCCC2)ccc1CN1CCCCC1 [JNJ-5207852]",
    "Population Pyknosed Nuclei (%)": 20
  },
  {
    "compound": "O=S(=O)(c1ccccc1)c1cnc2c(N3CCNCC3)cccc2c1 [INTEPIRDINE]",
    "Population Pyknosed Nuclei (%)": 16
  },
  {
    "compound": "CN(C)CCCc1cc(C(=O)Nc2ccc(-c3ccncc3)cc2)ccc1O.Cl.Cl",
    "Population Pyknosed Nuclei (%)": 17
  },
  {
    "compound": "CCOc1c2c(c(OCC)c3ncccc13)CN(c1ccc(CS(=O)(=O)NC(=O)Cc3ccccc3OC)cc1C)C2=O",
    "Population Pyknosed Nuclei (%)": 29
  }
]

Population Pyknosed Nuclei (%) for Fibroblast with input `CC[C@H]1OC(=O)[C@H](C)[C@@H](O[C@H]2C[C@@](C)(OC)[C@@H](O)[C@H](C)O2)[C@H](C)[C@@H](O[C@@H]2O[C@H](C)C[C@H](N(C)C)[C@H]2O)[C@@]2(C)CC(C)=C(O2)[C@H](C)[C@@H](O)[C@]1(C)O` equals 25

// Population Pyknosed Nuclei (%) (Fibroblast) for C[C@H](NC(=O)c1c(C(F)F)nn(C)c1Oc1cccc(C(F)(F)F)c1)c1ccc(C(=O)O)cc1 [PALUPIPRANT] = 22

Population Pyknosed Nuclei (%) on Fibroblast for O=C(O)c1cc2ccccc2c(Cc2c(O)c(C(=O)O)cc3ccccc23)c1O [PAMOIC ACID] is 24

Lab note: compound CNC[C@H](O)c1ccc(O)c(O)c1 [EPINEPHRINE] tested on Fibroblast; recorded Population Pyknosed Nuclei (%) was 23

GET /values?item= `CN(C)c1ccnc2sc3c(=O)n(N4CCCCCC4)cnc3c12` &system= Fibroblast returns Population Pyknosed Nuclei (%): 38

Noted Population Pyknosed Nuclei (%) for `CN1CCN(c2nc3cc(C(F)(F)F)ccc3n3cccc23)CC1.O=C(O)/C=C\C(=O)O.O=C(O)/C=C\C(=O)O` , tested on Fibroblast: 22

Reported Population Pyknosed Nuclei (%) (Fibroblast) for entry Cc1ccc(C(C)(O)c2nc3ccccc3s2)c(C)c1 (stereo not given) is 25
